- Test system: H929 (multiple myeloma)
- experiment.summary: Cell proliferation inhibition, Cell Titer-Glo, H929
- Format: cell-based
- measurement.parameters: Homo sapiens, NCI-H929; cell proliferation assay, H929 cells
- Description: IGF1R and other tyrosine kinase inhibitors can inhibit the proliferation of certain cancer cell lines indicating their possible therapeutic utility for treating the corresponding cancer types. […] The plated cells are mixed with the Cell Titer-Glo developing reagent and counted in a luminescence multiwell plate reader according to the standard manufacturer's protocol to generate IC50 curves for cell proliferation inhibition. […]
Here, each record is paired with measured IC50 data.

Past entries and their recorded results:
>>> df
                                   molecule       result
0  CCN1CCC(N2C(=O)c3cc4nc(-c5c(NC[C@@H](O)COc6ccc(C)cc6C)cc[nH]c5=O)[nH]c4cc3C2=O)CC1 [compound 143]   5 to 15 µM
1  Cc1ccc(OC[C@H](O)CNc2cc[nH]c(=O)c2-c2nc3cc4c(c(C)c3[nH]2)CN(C2CCN(C)CC2)C4=O)c(C)c1 [compound 132]     < 0.5 µM
2  CN1CCC(N2Cc3cc4[nH]c(-c5c(NC[C@@H](O)COc6ccc(F)cc6Br)cc[nH]c5=O)nc4cc3C2=O)CC1 [compound 165]  0.5 to 5 µM
3  Cc1ccc(OC[C@H](O)CNc2cc[nH]c(=O)c2-c2nc3c(C)c4c(cc3[nH]2)C(=O)N(C2CCN(C)CC2)C4)c(C)c1 [compound 139]  0.5 to 5 µM
4  O=C1c2cc3nc(-c4c(NC[C@@H](O)c5cccc(Cl)c5)cc[nH]c4=O)[nH]c3cc2C(=O)N1[C@H]1CN2CCC1CC2 [compound 34]   5 to 15 µM

Ask: What does the data say about its IC50? Entry: Cc1c(Cl)cccc1OC[C@H](O)CNc1cc[nH]c(=O)c1-c1nc2cc3c(cc2[nH]1)C(=O)N(C1CCN(C)CC1)C3=O [compound 94]
Reply: 5 to 15 µM

Ask: Then CN1CCC(N2Cc3cc4[nH]c(-c5c(NC[C@@H](O)COc6ccc7c(c6Cl)OCO7)cc[nH]c5=O)nc4cc3C2=O)CC1 [compound 163] ?
Reply: 5 to 15 µM

Ask: Then CCc1cc2c(cc1OC[C@H](O)CNc1cc[nH]c(=O)c1-c1nc3cc4c(cc3[nH]1)C(=O)N(C1CCN(C)CC1)C4)OCO2 [compound 156] ?
Reply: 5 to 15 µM

Ask: Then Cc1ccc(OC[C@H](O)CNc2cc[nH]c(=O)c2-c2nc3cc4c(cc3[nH]2)CN(C2CCN(C)CC2)C4=O)c(Br)c1 [compound 166] ?
Reply: 0.5 to 5 µM

Ask: Then CN1CCC(N2C(=O)c3cc4nc(-c5c(NC[C@@H](O)COc6cccc(OC(F)(F)C(F)F)c6)cc[nH]c5=O)[nH]c4cc3C2=O)CC1 [compound 91] ?
Reply: 0.5 to 5 µM

Ask: Then CN1CCC(N2C(=O)c3cc4nc(-c5c(NC[C@@H](O)COc6cccc7ccccc67)cc[nH]c5=O)[nH]c4cc3C2=O)CC1 [compound 87] ?
Reply: 5 to 15 µM

Ask: Then COc1ccc(OC[C@H](O)CNc2cc[nH]c(=O)c2-c2nc3cc4c(cc3[nH]2)CN(C2CCN(C)CC2)C4=O)c(Cl)c1 [compound 146] ?
Reply: 5 to 15 µM

Ask: Then Cc1cc(C)c(OC[C@H](O)CNc2cc[nH]c(=O)c2-c2nc3cc4c(cc3[nH]2)C(=O)N(C2CCN(C)CC2)C4=O)c(CS(C)(=O)=O)c1 [compound 84] ?
Reply: 0.5 to 5 µM

Each recorded value in this set is attributed to patent US8063225B2.
